testName: label from the status in PepcDB records
quantityName: protein production

Below: 8 sequences and their reported protein production.
{"columns": ["biopolymerSequence", "protein production"],
 "data": [
  ["MRIFFLIFLLAYVGGNVYIFIRTLQMLSGFSLAMKILLSVIYWLVAFSLVIAMLTRHIDMPVILSKSMFHIGSVWLVFTLYMIFALLIADVTKIFVPSLNHGFYYALGATCCLLLYGYYNYRHPQVNKIDVSLDKPIEGNGINIVAVSDVHLGYGTGKAMLKEYVDMINAQHPDLILIGGDLIDNSLTPLYKENMAEELAQLKAPLGIYMVPGNHEYISGIDESVRFLKDTPIQLLRDSVVTLPNGVQIIGRDDRSNRSRHSLPTLLKQADRSKPIILLDHQPYNLAKTDSLGIDLQFSGHTHHGQIWPISWVTDRIYEQSHGYRKWSQSHIYVSSGLSLWGPPFRIGTNSDMAVFHLNQMAK", "not failed"],
  ["MNAVTEGRKVLLEIADLKVHFEIKDGKQWFWQPPKTLKAVDGVTLRLYEGETLGVVGESGCGKSTFARAIIGLVKATDGHVAWLGKELLGMKPDEWRAVRSDIQMIFQDPLASLNPRMTIGEIIAEPLRTYHPKMSRQEVRERVKAMMLKVGLLPNLINRYPHEFSGGQCQRIGIARALILEPKLIICDEPVSALDVSIQAQVVNLLQQLQREMGLSLIFIAHDLAVVKHISDRVLVMYLGHAVELGTYDEVYHNPLHPYTRALMSAVPIPDPDLEKNKTIQLLEGELPSPINPPSGCVFRTRCPIAGPECAKTRPVLEGSFRHAVSCLKVDPL", "failed"],
  ["MDINNKARIHWACRRGMRELDISIMPFFEHEYDSLSDDEKRIFIRLLECDDPDLFNWLMNHGKPADAELEMMVRLIQTRNRERGPVAI", "not failed"],
  ["MFYILNNVLKNIKTLDNVKSKFFLKDSFLKNKLKANNLDDNLSSHIFFNEIFVSLRDDEKKEEHKKVLLFNKVRNDKKHRKRAFQKRGYWKKMHYFIRKNNMMSYAFKVQNIDYEKIKKLKRGEVYSN", "failed"],
  ["MNTSDRIKSTQIALDRDLREQALLLLKEVRAVDGVDALSEQFVRGLAEPGLGHSHLIVTLNDKLVGLAATDEETTELAVHPAHRRQGIGKALIDAT", "failed"],
  ["MIREFFQKYFIDPIKYNTGYNPVNTLVYAIILGIATLLVYKVLKRLKIEINNAFFRALIPYMIFGAFTRALTDAGVFPRTYLTVSPGIYFLVFVIAFSALLVSHKFAKDWRGVFLWFGWGLVMVDLAAMSANISKINFDFAVLKYFIPFLILAELVVFLLSKKVSLVRENSYLFYAHFYDATTTFVGVDFMGYWEQHVLPRLLIGLTGTAAVMYVLKFIILFAAVWLLKELEKEGEEKELLDFIKMVIFILGFAPGTRNLLRMLMGV", "failed"],
  ["MIITIPIKNQKDIGTPSDSVVVLGYFDGIHKGHQELFRVANKAARKDLLPIVVMTFNESPKIALEPYHPDLFLHILNPAERERKLKREGVEELYLLDFSSQFASLTAQEFFATYIKAMNAKIIVAGFDYTFGSDKKTAEDLKNYFDGEVIIVPPVEDEKGKISSTRIRQAILDGNVKEAGKLLGAPLPSRGMVVHGNARGRTIGYPTANLVLLDRTYMPADGVYVVDVEIQRQKYRAMASVGKNVTFDGEEARFEVNIFDFNQDIYGETVMVYWLDRIRDMTKFDSVDQLVDQLKADEEVTRNWS", "not failed"],
  ["MNYSHPISLKTLVQEDDIGVNAPIIHQSVIARLTAGLYPLYQSKKIPFEPLPETMLTEGYSSPVPDVLLYDHQTEEAKVIIEVCQNSGLKHDTSKIVKLIEDNAYGILEGFVFNYKTQQWLRYRLGDGGVATNSSFSEVLQVDLNTFV", "not failed"]
]}

Please look at the following sequence next.
*Q* Fill in reported protein production for this entry: TGEPGASDLESRNNRLQLALQLNQRTQQEQLEHLERVRGQQDLILRLARHRYSAGNSLLEAAQLITQSACEIYKVDCASIWHLEDQRLEPIIAWYRDAQEHRQPEAIDASRFPDYLDALHASRAIDAHNAGHDPRTRALAQSMRPENKAMLDASIRVDGQVIGVLCLEQSGQPRAWQSDEIAFAGELADQFAQVITNHKRRAAASALHLFQRAVEQSA
*A* failed
